# Test system: SN12C renal
# test-description: NCI-60 one-dose screen, 48 h (100 = growth as untreated, 0 = no growth, -100 = all killed)
# setup-conditions: 10 µM unless noted
This is part of a sample that, as a whole, favours compounds with a hit. Of some 83,000 tested, about 20% had one in any assay.
observation-type: growth (%)
Numbers only here, please. The scale is %.

Qu. I'm curious: which growth was measured for `CCN1CCN(CC(=O)Nc2nc3ccc(NCc4ccc(C)cc4)cc3s2)CC1` tested on SN12C renal?
Ans. 63.3

Qu. Item: `C=C(C)[C@@H]1CC[C@]2(C(=O)N3CCN(C)CC3)CC[C@]3(C)[C@H](CC[C@@H]4[C@@]5(C)CC(CCCNC(C)=O)(CCCNC(C)=O)[C@H](OC(C)=O)C(C)(C)[C@@H]5CC[C@]43C)[C@@H]12` Test system: SN12C renal Read-out: growth Value: ?
Ans. 96.5

Qu. Identify the measured growth of `Cc1ccc(-c2nc([P+](c3ccccc3)(c3ccccc3)c3ccccc3)c(Nc3ccccc3)o2)cc1` for SN12C renal.
Ans. 2.84

Qu. Value wanted: growth (SN12C renal) of entry `CN1C(=O)/C(=C/c2ccc(C(=O)Nc3ncc(Cc4ccccc4Cl)s3)cc2)SC1=S`
Ans. 68.6
